# tested system: Gal-1 (Homo sapiens)
# Construct: made in house; host or cells: E. coli BL21(DE3)
# Sequence (P09382 whole entry): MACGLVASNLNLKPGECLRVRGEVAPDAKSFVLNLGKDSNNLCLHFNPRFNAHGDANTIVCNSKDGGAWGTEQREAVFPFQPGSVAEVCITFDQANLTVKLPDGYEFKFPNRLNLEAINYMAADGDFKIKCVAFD
# assay remarks: Pull-down assay with immobilized protein and LSM libraries
# Type: binding
# condition notes: H14 library; 1:1 binding assumed; read-out: Surface mapping KD (apparent)
measured endpoint: Kd (µM)
Give bare numbers, in µM.

Sample records with Kd:
{"compound structure string": "CSCC[C@@H](CC(=O)N[C@H]1CCCC[C@@H]1C(=O)N[C@H]1CCCC[C@@H]1C(=O)N[C@H](CC(=O)N[C@H]1CCCC[C@@H]1C(N)=O)C(C)C)NC(=O)[C@H]1CCCC[C@@H]1N", "tested system": "Gal-1 (Homo sapiens)", "value unit": "µM", "observed result": 178}
{"compound structure string": "CSCC[C@@H](CC(=O)N[C@H]1CCCC[C@@H]1C(N)=O)NC(=O)[C@H]1CCCC[C@@H]1NC(=O)[C@H]1CCCC[C@@H]1NC(=O)C[C@H](CC(N)=O)NC(=O)[C@H]1CCCC[C@@H]1N", "tested system": "Gal-1 (Homo sapiens)", "value unit": "µM", "observed result": 350}
{"compound structure string": "C[C@@H](CC(=O)N[C@H]1CCCC[C@@H]1C(N)=O)NC(=O)[C@H]1CCCC[C@@H]1NC(=O)[C@H]1CCCC[C@@H]1NC(=O)C[C@H](C)NC(=O)[C@H]1CCCC[C@@H]1N", "tested system": "Gal-1 (Homo sapiens)", "value unit": "µM", "observed result": 326}

# map each compound to its Kd
1. CC(C)[C@@H](CC(=O)N[C@H]1CCCC[C@@H]1C(=O)N[C@H]1CCCC[C@@H]1C(=O)N[C@@H](CCC(=O)O)CC(=O)N[C@H]1CCCC[C@@H]1C(N)=O)NC(=O)[C@H]1CCCC[C@@H]1N
2. CSCC[C@@H](CC(=O)N[C@H]1CCCC[C@@H]1C(=O)N[C@H]1CCCC[C@@H]1C(=O)N[C@H](CC(=O)N[C@H]1CCCC[C@@H]1C(N)=O)[C@@H](C)O)NC(=O)[C@H]1CCCC[C@@H]1N

Ans:
1. 313
2. 424
